# Test system: NCI-H460 lung
# experiment-notes: NCI-60 one-dose screen, 48 h
# study-conditions: 10 µM unless noted
Compounds without any hit were thinned out: in the full panel of roughly 83,000, 20% have a hit. Calls of active or inactive are those of the source. How the source made its calls: active means growth percent below 10; inactive means the rest.
Write down the outcome that applies. Available outcomes: active, inactive

Consider the worked cases shown below.
INSERT INTO results (compound, cat) VALUES
  ('Cc1nc(C)c(C(=O)O)cc1C(=O)O', 'inactive'),
  ('COc1ccc2c(ccc[n+]2C)c1', 'inactive'),
  ('CCCCN(C(=O)CC)c1ccccc1', 'inactive'),
  ('Nc1ccccc1SC1CC(=O)N(c2ccc(Cl)c(Cl)c2)C1=O (centres undefined)', 'inactive'),
  ('COc1cccc(C(=O)O)c1OC', 'inactive');

-- ask Hi, do you know how "CC(C)N(CCCC#N)C(C)C" came out in this test?
-- reply inactive

-- ask State the result this test recorded for CCCCCCCCCCCCCC/C=C\C(CC(=O)O)C(=O)O (centres undefined) .
-- reply inactive

-- ask State the result this test recorded for "Cc1ccc(C(C)C)c(OCC(=O)O)c1" .
-- reply inactive

-- ask Look up the recorded call for "Nc1cc(N)ncn1" in this test.
-- reply inactive

-- ask Test call, this compound: "C=C(C)COc1ccc(C(C)(C)C)cc1"
-- reply inactive

-- ask What did this assay record as the result for "CCOC(=O)/C(O)=C(\C=N\C(=S)Nc1ccc(Cl)c(Cl)c1)C(=O)OCC" ?
-- reply inactive

-- ask Assay result, entry "CCCCNc1ccc(-c2ccc(NCCCC)cc2)cc1" — outcome?
-- reply inactive

-- ask Check the results log: what was the call for "O=Cc1c(O)c2ccccc2[nH]c1=O" ?
-- reply inactive

-- ask I'd appreciate the recorded outcome for "O=C(Nc1cccc(Cl)c1)c1ccc(Cl)cc1Cl" from this test.
-- reply inactive

-- ask Test call for this compound, please: "CC(=O)c1ccc(C)cc1"
-- reply inactive

-- ask Assay outcome for "CCCC(=O)c1cccs1" : what was it?
-- reply inactive

-- ask What is the recorded call for this compound in the test? COc1cc2c(c(OC)c1OC)-c1ccc(SC)c(=O)cc1[C@@H](NC1OC(CO)C(O)C(O)C1O)CC2 (some centres undefined)
-- reply active
